Please respond with reported TGI for every item in the list.
- assayDetails: Growth inhibition of human EKVX cells measured after 48 hrs by sulforhodamine B assay
- Type: functional
Answers are plain numbers, in µM.

In the examples that follow, each entry is paired with its recorded TGI.
[Br-].c1ccc(-c2n(Cc3ccc4ccccc4c3)cc[n+]2Cc2ccc3ccccc3c2)cc1	3.43
CCc1n(Cc2ccc3ccccc3n2)cc[n+]1Cc1ccc2ccccc2n1.[Cl-]	41.5
CCCc1n(Cc2ccc3ccccc3n2)cc[n+]1Cc1ccc2ccccc2c1.[Cl-]	14.9
CCCCc1n(Cc2ccc3ccccc3n2)cc[n+]1Cc1ccc2ccccc2n1.[Cl-]	22
CCc1n(Cc2ccc3ccccc3n2)cc[n+]1Cc1ccc2ccccc2c1.[Br-]	7.34

Hello, I would appreciate it if you could give TGI for each entry below.
1. Cc1n(Cc2ccc3ccccc3n2)cc[n+]1Cc1ccc2ccccc2c1.[Br-]
2. c1ccc2cc(Cn3cc[n+](Cc4ccc5ccccc5c4)c3)ccc2c1

Response given:
1: 27.6; 2: 15.5

# credit: ChEMBL document CHEMBL3872259
